Where do the numbers come from? From the supplement of paper PMC9732359.

Recorded protein stability index values for a group of sequences are listed next.
- method.notes: protein stability index of a GFP-peptide fusion (yeast GPS) (PSI 1-4); higher = more stable; sorted into four equal gates, so the index is relative within each strain
- condition.parameters: ubr1∆
A bare number is all that is needed in reply.

Illustrative cases are given below, each with its answer.
In [3]: df
Out[3]:
             sequence_content  meas_value
0  PITGASLDLIKERRSLK [RPL24A]        2.98
1    MSYVVRILSTLDRELLK [RPT3]        2.88
2    IDKLMLSPSDQFAPAFL [SSN2]         2.5
3    TTSLNPIQSKVFHAAFE [BRR2]        2.85
4    VTLRKSLYTNTSRKALE [RPL3]        1.78

Using known records, supply protein stability index for LNVQVWHIEETGEWFSS [ITC1]
2.41

====

Recorded protein stability index values for a group of sequences are listed next.
- method.notes: protein stability index of a GFP-peptide fusion (yeast GPS) (PSI 1-4); higher = more stable; sorted into four equal gates, so the index is relative within each strain
- condition.parameters: san1∆
A bare number is all that is needed in reply.

Illustrative cases are given below, each with its answer.
In [3]: df
Out[3]:
                     sequence_content  meas_value
0  SDNVSFEIQGVPPMKLA [YMR129W/POM152]        3.05
1            EHNPSAHTASVGVVFGS [COR1]        2.88
2           GCYFEEKRYDDKLLDFI [CSN12]        3.04

Using known records, supply protein stability index for TELLDYATKLSKFTKIP [MED4]
2.98

Using known records, supply protein stability index for SASKHEYSDNFPVSLSQ [SIR4]
3.06

Using known records, supply protein stability index for TSYKKWSFDLPEMSNLY [PRP8]
2.26

====

- method.notes: protein stability index of a GFP-peptide fusion (yeast GPS) (PSI 1-4); higher = more stable; sorted into four equal gates, so the index is relative within each strain
- condition.parameters: pdr5∆
Recorded protein stability index values for a group of sequences are listed next.
A bare number is all that is needed in reply.

Illustrative cases are given below, each with its answer.
In [3]: df
Out[3]:
            sequence_content  meas_value
0  LKSAIRDEIAKNTELSY [RPN12]        2.16
1   MSYVVRILSTLDRELLK [RPT3]        2.24
2  DRKSIMPLKILLATKQH [CSN12]        1.19
3   GDTIELAIIGDENPDLL [PRE8]        3.11
4  GPSAMRLSRCIRDNKLV [RPC82]        2.23

Using known records, supply protein stability index for MAPVKSQESINQKLALV [RPL30]
2.53

Using known records, supply protein stability index for GLAVGLALINYGRQELA [RPN2]
1.21

Using known records, supply protein stability index for ISSEKLLTLTNAANVPV [RPP1A]
2.9

====

- method.notes: protein stability index of a GFP-peptide fusion (yeast GPS) (PSI 1-4); higher = more stable; sorted into four equal gates, so the index is relative within each strain
- condition.parameters: doa10∆
Recorded protein stability index values for a group of sequences are listed next.
A bare number is all that is needed in reply.

Illustrative cases are given below, each with its answer.
>>> print(df.to_string())
                     sequence_content  meas_value
0            RGDSTETSSFGSMFSGD [RRI1]         3.5
1            PDFKPWEHTAAEDQILA [SRB8]        2.83
2            SVKKAGASINSMKANTS [ARP7]        2.07
3  IIVPDLIELKSDLLVAP [YML103C/NUP188]        1.65
4            GIWNDLGSGSNVDVCVM [PUP1]        2.69

Using known records, supply protein stability index for SYKDSGLWGFSTATRNV [COR1]
2.98

====

- method.notes: protein stability index of a GFP-peptide fusion (yeast GPS) (PSI 1-4); higher = more stable; sorted into four equal gates, so the index is relative within each strain
- condition.parameters: doa10∆
measured.parameter: protein stability index
A bare number is all that is needed in reply.

Illustrative cases are given below, each with its answer.
>>> print(df.to_string())
                    sequence_content  meas_value
0  MNAGGLFGAKPQNTTAT [YGR119C/NUP57]        2.43
1           MIELICSSATVPKHMLD [AAR2]        1.85
2           THTEQNNPPKPQKPVPL [SNF2]        2.88
3           AQQLVGVYKRDNRTKST [SMC4]        3.11
4           LGNIASSFYINHASMDV [BRR2]        2.84

Using known records, supply protein stability index for KNEEAEIEVDEMEVDAE [RPN1]
3.4

Using known records, supply protein stability index for GAAANNNDQKRQQAYKT [YJL041W/NSP1]
3.06

Using known records, supply protein stability index for EDPNSAAFDEVEYKLTF [DIS3]
1.18

====

- method.notes: protein stability index of a GFP-peptide fusion (yeast GPS) (PSI 1-4); higher = more stable; sorted into four equal gates, so the index is relative within each strain
- condition.parameters: san1∆
Recorded protein stability index values for a group of sequences are listed next.
A bare number is all that is needed in reply.

Illustrative cases are given below, each with its answer.
>>> print(df.to_string())
                    sequence_content  meas_value
0          GLSAREAVKQAAKIIYL [PRE10]        2.59
1          PNPNNMKTVQSPMGAQP [GAL11]        2.96
2           KYKPTPLYVMDEIDAAL [SMC4]           3
3           KIDSHVVLSFSGLNADS [PRE6]        2.48
4  TIANSIILHFANFGEIL [YMR153W/NUP53]        2.23

Using known records, supply protein stability index for DMVMATVKKGKPELRKK [RPL23A]
3.54

Using known records, supply protein stability index for ILDNTENYDDTELRQLF [DSN1]
3.37

Using known records, supply protein stability index for HIHKHVKDEAFDDLLKP [RET1]
3.25

Using known records, supply protein stability index for ALRDVKNNNNANNNGSN [GAL11]
3.13

Using known records, supply protein stability index for HRLSILSHYAKIRPWRT [RPO31]
2.85

Using known records, supply protein stability index for QINKAQILENYNALFQQ [YJL039C/NUP192]
2.73

Using known records, supply protein stability index for STISAREIQTAVRLILP [HTB1]
2.52

====

Recorded protein stability index values for a group of sequences are listed next.
- method.notes: protein stability index of a GFP-peptide fusion (yeast GPS) (PSI 1-4); higher = more stable; sorted into four equal gates, so the index is relative within each strain
- condition.parameters: ubr1∆

Illustrative cases are given below, each with its answer.
In [3]: df
Out[3]:
             sequence_content       measured_parameter  meas_value
0    TSYKKWSFDLPEMSNLY [PRP8]  protein stability index        2.13
1  RERRAALTDFERFQVMV [RPL14A]  protein stability index         1.8

Using known records, supply protein stability index for NRQICLVQKTVQESGNI [GRR1]
2.69

Using known records, supply protein stability index for IKEKVQFNATINPESRE [ITC1]
2.07

Using known records, supply protein stability index for DSEKHIDFAPTSPFGGA [RPS9A]
2.68

Using known records, supply protein stability index for GILGNKAQAKMDKRAKT [RPL8B]
3.63

Using known records, supply protein stability index for NNFRESDIIILKGEIED [SIR4]
2.93

Using known records, supply protein stability index for PQENDLESKMSEVGDAF [SMC3]
2.98

====

- method.notes: protein stability index of a GFP-peptide fusion (yeast GPS) (PSI 1-4); higher = more stable; sorted into four equal gates, so the index is relative within each strain
- condition.parameters: ubr1∆
Recorded protein stability index values for a group of sequences are listed next.
A bare number is all that is needed in reply.

>>> df
             sequence_content       measured_parameter  meas_value
0    GLTSRLQRQQRKSKLNL [POP4]  protein stability index        3.67
1    TKKKSKFMTNSTAFVPT [ARP9]  protein stability index        2.77
2  PAPINSLSRDFVMKTRR [SNU114]  protein stability index        3.15

Using known records, supply protein stability index for DSLASELTLAEQQVKEA [SMC4]
3.39

Using known records, supply protein stability index for ESSSEDDYEDQDDDDYV [IRR1]
3.65

Using known records, supply protein stability index for ITKEVTQVNILKENNAI [YIL149C/MLP2]
3.17

Using known records, supply protein stability index for IVLSKAASALDEKEKQL [SIR4]
3.57

Using known records, supply protein stability index for DINTVNTNLMNGVNVQI [GRR1]
3.06

Using known records, supply protein stability index for LFPEQQTKEIKTERVED [RPL6B]
3.38
